Tested on: A-375
Assay: cells
Settings: Homo sapiens, A-375, 72 h
Description: Antiproliferative activity against human A375 cells assessed as inhibition of cell proliferation after 72 hrs
Task for the reader: assign each of the following molecules its reported pEC50.
Quick note: pEC50 values are minus log10 of concentrations in mol/L.

Prompt: Complete the entry with pEC50 for "O=C(NOCCO)c1oc2ccncc2c1Nc1ccc(I)cc1F"
Completion: 7.60

Prompt: Give the reported value of pEC50 for this record: "C[C@H](O)CONC(=O)c1ncc2cncn2c1Nc1ccc(I)cc1F"
Completion: 8.30

Prompt: Entry "O=C(NOCCO)c1ncc2cncn2c1Nc1ccc(I)cc1F" needs its pEC50 filled in; supply it.
Completion: 8.10

Prompt: State its pEC50 for this molecule: "O=C(NOCCO)c1ccn2cncc2c1Nc1ccc(I)cc1F"
Completion: 8.70

Prompt: Output measured pEC50 for this item: "O=C(NOCCO)c1ccc2cncn2c1Nc1ccc(I)cc1F"
Completion: 8.40

Prompt: Give pEC50 for the following molecule: "C[C@H](CO)CONC(=O)c1ncc2cncn2c1Nc1ccc(I)cc1F"
Completion: 8.15

* * *

Test: Protein binding in mouse plasma
Format: ADME, cell-free
Details: read-out: PPB (converted)
measured.attribute: fraction unbound
Give the value as a plain number.

Prompt: Indicate the recorded fraction unbound value for this compound: "O=C(NOCCO)c1ccn2cncc2c1Nc1ccc(I)cc1F"
Completion: 0.049

Prompt: Check the records and state fraction unbound for "O=C(NOCCO)c1ncc2cncn2c1Nc1ccc(I)cc1F"
Completion: 0.11

Prompt: Give the measured fraction unbound for "O=C(NOCCO)c1ccc2cncn2c1Nc1ccc(I)cc1F"
Completion: 0.06

Prompt: In one line, give reported fraction unbound of the entry "C[C@H](CO)CONC(=O)c1ncc2cncn2c1Nc1ccc(I)cc1F" .
Completion: 0.13

Prompt: Give the reported value of fraction unbound for this record: "C[C@H](O)CONC(=O)c1ncc2cncn2c1Nc1ccc(I)cc1F"
Completion: 0.09

* * *

Test: AUC in rat at 1 mg/kg, iv or 5 mg/kg, po
Type: ADME, organism-based
Conditions: plasma
measured.attribute: AUC (µM·h)
Please state the figure in µM·h; there is no need to write the unit.

Prompt: State, in one line, measured AUC of "O=C(NOCCO)c1ccn2cncc2c1Nc1ccc(I)cc1F"
Completion: 6

* * *

Kindly state pIC50 for each of the entries shown.
Biological target: Voltage-gated inwardly rectifying potassium channel KCNH2 (Homo sapiens, UniProt Q12809)
Sequence (Q12809 whole entry): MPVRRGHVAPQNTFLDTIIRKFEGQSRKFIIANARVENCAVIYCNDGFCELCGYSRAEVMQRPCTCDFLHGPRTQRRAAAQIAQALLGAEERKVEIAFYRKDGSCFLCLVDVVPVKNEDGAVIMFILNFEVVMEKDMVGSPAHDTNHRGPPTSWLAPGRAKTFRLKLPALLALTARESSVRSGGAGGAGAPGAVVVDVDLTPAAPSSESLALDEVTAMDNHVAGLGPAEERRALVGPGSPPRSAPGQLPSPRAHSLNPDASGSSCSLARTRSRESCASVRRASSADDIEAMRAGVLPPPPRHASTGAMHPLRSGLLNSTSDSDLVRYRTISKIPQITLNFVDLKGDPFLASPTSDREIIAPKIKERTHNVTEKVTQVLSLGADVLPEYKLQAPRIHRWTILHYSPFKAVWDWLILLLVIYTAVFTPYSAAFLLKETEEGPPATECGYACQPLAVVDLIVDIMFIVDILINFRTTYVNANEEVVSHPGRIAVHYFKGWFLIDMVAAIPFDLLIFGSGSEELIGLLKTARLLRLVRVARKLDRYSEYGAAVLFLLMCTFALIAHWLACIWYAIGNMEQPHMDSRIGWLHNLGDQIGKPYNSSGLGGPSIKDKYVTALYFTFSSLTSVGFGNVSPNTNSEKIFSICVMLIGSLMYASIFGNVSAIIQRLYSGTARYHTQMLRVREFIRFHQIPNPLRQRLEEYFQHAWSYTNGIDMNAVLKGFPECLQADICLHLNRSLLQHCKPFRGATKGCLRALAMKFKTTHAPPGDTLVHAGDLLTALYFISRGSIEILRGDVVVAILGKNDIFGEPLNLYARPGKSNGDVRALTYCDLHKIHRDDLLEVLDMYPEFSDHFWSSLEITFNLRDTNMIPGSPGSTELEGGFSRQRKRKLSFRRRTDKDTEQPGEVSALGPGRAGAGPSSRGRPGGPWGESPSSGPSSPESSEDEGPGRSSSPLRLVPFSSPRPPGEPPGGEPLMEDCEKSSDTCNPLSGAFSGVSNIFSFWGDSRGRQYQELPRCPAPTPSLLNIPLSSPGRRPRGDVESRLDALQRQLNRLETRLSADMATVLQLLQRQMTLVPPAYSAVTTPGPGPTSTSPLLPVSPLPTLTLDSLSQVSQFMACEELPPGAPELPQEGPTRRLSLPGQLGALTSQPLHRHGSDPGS
Assay: Inhibition of human ERG by patch clamp assay
Friendly reminder that pIC50 comes from taking -log10 of the concentration in mol/L.

Prompt: Consider the compound "O=C(NOCCO)c1ncc2cncn2c1Nc1ccc(I)cc1F" tested on Voltage-gated inwardly rectifying potassium channel KCNH2 (Homo sapiens, UniProt Q12809); state its pIC50.
Completion: 5.48

Prompt: State measured pIC50 of the compound O=C(NOCCO)c1ccc2cncn2c1Nc1ccc(I)cc1F [GDC-0623] with Voltage-gated inwardly rectifying potassium channel KCNH2 (Homo sapiens, UniProt Q12809).
Completion: 5.36

Prompt: Look up Voltage-gated inwardly rectifying potassium channel KCNH2 (Homo sapiens, UniProt Q12809) data: pIC50 of "O=C(NOCCO)c1ccn2cncc2c1Nc1ccc(I)cc1F" , then report it.
Completion: 5.68

Prompt: Report pIC50 under test system Voltage-gated inwardly rectifying potassium channel KCNH2 (Homo sapiens, UniProt Q12809) for "C[C@H](CO)CONC(=O)c1ncc2cncn2c1Nc1ccc(I)cc1F" .
Completion: 4.85

* * *

Experiment: Efflux ratio in MDCK cells
Assay type: ADME, cell-based, Canis lupus familiaris
Details: dog
Would you kindly list efflux ratio for each of these compounds?

Prompt: Tell me its efflux ratio given "O=C(NOCCO)c1ncc2cncn2c1Nc1ccc(I)cc1F" as the entry.
Completion: 0.7

Prompt: For the compound "O=C(NOCCO)c1ccc2cncn2c1Nc1ccc(I)cc1F" , give its measured efflux ratio value.
Completion: 2.6

Prompt: Identify measured efflux ratio corresponding to "O=C(NOCCO)c1ccn2cncc2c1Nc1ccc(I)cc1F"
Completion: 0.7

* * *

Target: Dual specificity mitogen-activated protein kinase kinase 1 (Homo sapiens)
Sequence (Q02750 whole entry): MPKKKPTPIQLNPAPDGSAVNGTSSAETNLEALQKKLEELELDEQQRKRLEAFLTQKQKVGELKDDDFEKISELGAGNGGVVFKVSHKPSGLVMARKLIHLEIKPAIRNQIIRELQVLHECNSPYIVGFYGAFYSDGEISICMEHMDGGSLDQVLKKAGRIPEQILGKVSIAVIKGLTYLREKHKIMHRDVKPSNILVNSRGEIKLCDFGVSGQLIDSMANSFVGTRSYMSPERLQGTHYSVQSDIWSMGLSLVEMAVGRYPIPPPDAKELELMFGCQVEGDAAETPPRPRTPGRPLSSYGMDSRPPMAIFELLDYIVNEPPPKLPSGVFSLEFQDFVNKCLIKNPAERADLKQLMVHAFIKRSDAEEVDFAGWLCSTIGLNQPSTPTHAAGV
Experiment: Inhibition of MEK1 (unknown origin) by HTRF assay
measured.attribute: IC50 (nM)
Output spec: scalar in nM, unitless text.

Prompt: Complete the entry with IC50 for "O=C(NOCCO)c1oc2ccncc2c1Nc1ccc(I)cc1F"
Completion: 12

* * *

Test: Total clearance in rat at 1 mg/kg, iv or 5 mg/kg, po
Type: ADME, organism-based
Details: in vivo
Please respond with reported clearance for every item in the list.
Provide only the numeric value, understood in mL/min/kg.

Prompt: Please indicate clearance recorded for "C[C@H](O)CONC(=O)c1ncc2cncn2c1Nc1ccc(I)cc1F"
Completion: 44

Prompt: Provide only the value of recorded clearance for "O=C(NOCCO)c1ncc2cncn2c1Nc1ccc(I)cc1F"
Completion: 48

Prompt: Note clearance for the molecule shown: "O=C(NOCCO)c1cc(F)c2cncn2c1Nc1ccc(I)cc1F"
Completion: 3.3

Prompt: Answer with reported clearance of "O=C(NOCCO)c1ccn2cncc2c1Nc1ccc(I)cc1F"
Completion: 14

Prompt: Entry "C[C@H](CO)CONC(=O)c1ncc2cncn2c1Nc1ccc(I)cc1F" needs its clearance filled in; supply it.
Completion: 12

Prompt: Identify clearance associated with the molecule "O=C(NOCCO)c1ccc2cncn2c1Nc1ccc(I)cc1F"
Completion: 13.2

* * *

Assay: Hepatic clearance in dog liver microsomes
Format: ADME, Canis lupus familiaris
Consider the following compounds; for each one, report its CLhep predicted.
Write the numeric value and append its unit.

Prompt: Query CLhep predicted for "O=C(NOCCO)c1ccn2cncc2c1Nc1ccc(I)cc1F"
Completion: 23 mL/min/kg

Prompt: Indicate the recorded CLhep predicted value for this compound: "O=C(NOCCO)c1ccc2cncn2c1Nc1ccc(I)cc1F"
Completion: 12 mL/min/kg

* * *

Task for the reader: assign each of the following compounds its reported CL free.
Tested on: Rattus norvegicus
Assay: Free clearance in rat at 1 mg/kg, iv or 5 mg/kg, po
Format: ADME, organism-based
Details: in vivo
Could you give me the number in mL/min/kg? Just the number is fine.

Prompt: Give the measured CL free for "C[C@H](O)CONC(=O)c1ncc2cncn2c1Nc1ccc(I)cc1F"
Completion: 800

Prompt: Kindly indicate its recorded CL free. Item: "O=C(NOCCO)c1cc(F)c2cncn2c1Nc1ccc(I)cc1F"
Completion: 55

Prompt: Give CL free for "O=C(NOCCO)c1ncc2cncn2c1Nc1ccc(I)cc1F"
Completion: 600

Prompt: Annotate the compound "O=C(NOCCO)c1ccc2cncn2c1Nc1ccc(I)cc1F" with its measured CL free.
Completion: 1320

Prompt: For "O=C(NOCCO)c1ccn2cncc2c1Nc1ccc(I)cc1F" , write its CL free.
Completion: 636

Prompt: State its CL free: "C[C@H](CO)CONC(=O)c1ncc2cncn2c1Nc1ccc(I)cc1F"
Completion: 92

* * *

Assay: Protein binding in human plasma
Assay type: ADME, cell-free
Conditions: read-out: PPB (converted)
measured.attribute: fraction unbound
# output: bare number, no unit

Prompt: Name the recorded fraction unbound of the item "O=C(NOCCO)c1ccn2cncc2c1Nc1ccc(I)cc1F" in your answer.
Completion: 0.015

Prompt: Give reported fraction unbound value for "C[C@H](O)CONC(=O)c1ncc2cncn2c1Nc1ccc(I)cc1F"
Completion: 0.1

Prompt: // fetch fraction unbound given entry "O=C(NOCCO)c1ncc2cncn2c1Nc1ccc(I)cc1F"
Completion: 0.09

Prompt: Provide measured fraction unbound value, entry: "O=C(NOCCO)c1ccc2cncn2c1Nc1ccc(I)cc1F"
Completion: 0.005

Prompt: Please supply the value of reported fraction unbound for the item "C[C@H](CO)CONC(=O)c1ncc2cncn2c1Nc1ccc(I)cc1F"
Completion: 0.14

* * *

Test: Thermodynamic solubility of the compound at pH 6.5
Assay type: physicochemical
Settings: buffer, read-out: Therm_solubility
Give Condition met when the value for solubility thermodynamic is at least 100 µg/mL. Give Condition not met when it is less.

Prompt: Is it the case that "O=C(NOCCO)c1ccn2cncc2c1Nc1ccc(I)cc1F" has solubility thermodynamic reaching or exceeding 100 µg/mL?
Completion: Condition met

Prompt: Given "C[C@H](CO)CONC(=O)c1ncc2cncn2c1Nc1ccc(I)cc1F" , state whether its solubility thermodynamic is at least 100 µg/mL.
Completion: Condition not met

Prompt: Hello, I need to know if "O=C(NOCCO)c1ncc2cncn2c1Nc1ccc(I)cc1F" has measured solubility thermodynamic not below 100 µg/mL. Thanks!
Completion: Condition met

Prompt: In plain terms: is recorded solubility thermodynamic at least 100 µg/mL for "O=C(NOCCO)c1ccc2cncn2c1Nc1ccc(I)cc1F" ?
Completion: Condition not met

Prompt: Is solubility thermodynamic for "C[C@H](O)CONC(=O)c1ncc2cncn2c1Nc1ccc(I)cc1F" at or above 100 µg/mL?
Completion: Condition not met

* * *

System: MDCK
Experiment: Permeability from basolateral to apical side in MDCK cells
Assay type: ADME, cell-based, Canis lupus familiaris
Details: dog
measured.attribute: permeability (×10⁻⁶ cm/s)
Answer in ×10⁻⁶ cm/s, number only, no unit symbol.

Prompt: Return permeability for the following molecule: "C[C@H](CO)CONC(=O)c1ncc2cncn2c1Nc1ccc(I)cc1F"
Completion: 8.7
